System: p-IKKa levels in L363 (NIK translocated multiple myeloma) cells
Experiment: Assay 2: Effect of compounds on p-IKKa levels in L363 (NIK translocated multiple myeloma) cells
Format: cell-based
Details: Homo sapiens, L-363, 6 h, read-out: Assay 2 IC50 (nM), p-IKKa (Ser 176/180) in BAFF stimulated L363 cells with MG132, 6 h; average if tested more than once
observed property: IC50

{"molecule": "CN1CC[C@@](O)(c2cc(-c3cccc(-c4ccnc(NCC5CCOCC5)n4)n3)no2)C1=O", "observed property": "IC50", "result": "50 to 500 nM"}
{"molecule": "Cc1ncc(Nc2nccc(-c3cccc(-c4cc([C@]5(O)CCN(C)C5=O)on4)n3)n2)cn1", "observed property": "IC50", "result": "50 to 500 nM"}
{"molecule": "CN1CC[C@@](O)(c2cnc(-c3cccc(-c4ccnc(Nc5ccn(C)n5)n4)n3)s2)C1=O (single isomer, unassigned)", "observed property": "IC50", "result": "> 500 nM"}
{"molecule": "Cc1cc(Nc2nccc(-c3cccc(-c4cc([C@@]5(O)C(=O)N(C)CC5(F)F)on4)n3)n2)ccn1", "observed property": "IC50", "result": "< 50 nM"}
{"molecule": "CN1CC[C@@](O)(c2cc(-c3cccc(-c4ccnc(Nc5cnn6ccccc56)n4)n3)no2)C1=O", "observed property": "IC50", "result": "< 50 nM"}
{"molecule": "CN1CC[C@@](O)(c2cc(-c3cccc(-c4ccnc(N[C@@H]5COC[C@@H]5F)n4)n3)no2)C1=O", "observed property": "IC50", "result": "50 to 500 nM"}
{"molecule": "CN1CC[C@@](O)(c2cc(-c3cccc(-c4ccnc(NC5CSC5)n4)n3)no2)C1=O", "observed property": "IC50", "result": "50 to 500 nM"}
